system: MOLM14 cells; test: Proliferation assay, spheroid-like growth, MOLM14 (MLL-AF9 rearranged); type: cell-based, human; details: Homo sapiens, MOLM-14, 192 h, 8 days, confluence as measure of spheroid size, read-out: spheroid assay_OneTime MOLM14 IC50
Binary label based on IC50 with cut-off 30 nM: below gives Criterion met, not below gives Criterion not met.

Some solved cases for reference:
compound="CC(C)[C@H]([C@H]1C[C@@H](N2CC3(CCO3)C2)C1)N1CC2(CCN(c3ncnnc3Oc3ccc(F)cc3-c3cnncc3C3CC3)C2)C1 (single isomer, unassigned)" qualitative_label="Criterion not met"
compound="CC(C)C([C@H]1C[C@@H](N2CCOCC2)C1)N1CC2(CCN(c3ncnnc3Oc3ccc(F)cc3-c3cncnc3C3CC3)C2)C1 (stereo partly shown)" qualitative_label="Criterion not met"
compound="COC1(C)CN([C@H]2C[C@H]([C@H](C(C)C)N3CC4(CCN(c5ncnnc5Oc5ccc(F)cc5-c5nnccc5C5CC5)C4)C3)C2)C1 (single isomer, unassigned)" qualitative_label="Criterion not met"
compound="CC(C)[C@@H](C1CCN(CC2COC2)CC1)N1CC2(CCN(c3ncnnc3Oc3ccc(F)cc3-c3cncnc3C3CC3)C2)C1 (single isomer, unassigned)" qualitative_label="Criterion not met"

Task item: In the record for CC(=O)N[C@H]1C[C@@H]([C@H](C(C)C)N2CC3(CCN(c4ncnnc4Oc4ccc(F)cc4-c4ncncc4C4CC4)C3)C2)C1 (single isomer, unassigned) , is IC50 less than 30 nM?
Reply: Criterion not met

Task item: In the record for CC(C)C([C@H]1C[C@@H](Nc2n[nH]c3ncncc23)C1)N1CC2(CCN(c3ncnnc3Oc3ccc(F)cc3-c3cncnc3C3CC3)C2)C1 (single isomer, unassigned) , is IC50 less than 30 nM?
Reply: Criterion met
